- Subject Of Test: Beta-2 adrenergic receptor (Homo sapiens)
- Sequence (P07550 whole entry): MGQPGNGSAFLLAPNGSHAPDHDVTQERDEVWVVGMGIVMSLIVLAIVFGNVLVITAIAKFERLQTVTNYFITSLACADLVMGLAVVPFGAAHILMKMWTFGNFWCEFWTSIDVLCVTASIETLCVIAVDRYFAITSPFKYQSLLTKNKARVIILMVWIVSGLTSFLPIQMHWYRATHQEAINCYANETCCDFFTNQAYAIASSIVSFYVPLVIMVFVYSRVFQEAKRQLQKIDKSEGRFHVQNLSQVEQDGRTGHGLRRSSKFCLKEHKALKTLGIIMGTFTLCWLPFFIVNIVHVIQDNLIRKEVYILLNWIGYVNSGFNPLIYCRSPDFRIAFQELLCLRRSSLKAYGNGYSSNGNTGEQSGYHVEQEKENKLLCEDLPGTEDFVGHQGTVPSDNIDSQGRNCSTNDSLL
Endpoint Label: AC50

Query: Reported AC50, compound `CN(C)[C@@H]1C(O)=C(C(N)=O)C(=O)[C@@]2(O)C(O)=C3C(=O)c4c(O)ccc(Cl)c4[C@@H](O)[C@H]3C[C@@H]12` : ____
Reply: > 10 µM

Query: Reported AC50, compound `COc1ccc2cccc(CCNC(C)=O)c2c1` : ____
Reply: > 10 µM

Query: Reported AC50, compound `Cc1cc(-c2ccccc2)nnc1NCCN1CCOCC1` : ____
Reply: > 10 µM

Query: Reported AC50, compound `C#C[C@]1(O)CC[C@H]2[C@@H]3CCC4=CCCC[C@@H]4[C@H]3CC[C@@]21C` : ____
Reply: > 30 µM
